target: T1, CD3 epsilon homodimer protein (UniProt P07766 23-126); test: SPR, antibody over immobilised CD3e homodimer;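 also: SPR at 25 °C with CD3 epsilon homodimer amine-coupled to a CM4 sensor chip and antibody flowed over as analyte in HBS-EP+ running buffer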
T1 construct: also called CD3 (CD3 epsilon)
T1 sequence (P07766 23-126): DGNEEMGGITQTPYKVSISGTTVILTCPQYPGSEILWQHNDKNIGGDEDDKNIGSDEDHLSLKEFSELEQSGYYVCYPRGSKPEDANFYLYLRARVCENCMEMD
QUANTITY_KIND: KD ratio to GLS3000
Number only, no unit.

Solved cases (2 shown):
Please report KD ratio to GLS3000 for the following binder: CE115HA000/GLS3000 N53R (antibody, IgG1, name in Kabat numbering, V domains shown, one-arm IgG1) VH: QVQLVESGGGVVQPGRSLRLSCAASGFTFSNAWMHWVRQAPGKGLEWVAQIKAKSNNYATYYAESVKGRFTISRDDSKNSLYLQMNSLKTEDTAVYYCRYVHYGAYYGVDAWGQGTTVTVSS VL: DIVMTQSPLSLPVTPGEPASISCRSSQSLVHSNRNTYLHWYQQKPGQAPRLLIYKVSRRFSGVPDRFSGSGSGTDFTLKISRVEAEDVGVYYCGQGTQVPYTFGQGTKLEIK
1.56

Please report KD ratio to GLS3000 for the following binder: CE115HA000/GLS3000 V94W (antibody, IgG1, name in Kabat numbering, V domains shown, one-arm IgG1) VH: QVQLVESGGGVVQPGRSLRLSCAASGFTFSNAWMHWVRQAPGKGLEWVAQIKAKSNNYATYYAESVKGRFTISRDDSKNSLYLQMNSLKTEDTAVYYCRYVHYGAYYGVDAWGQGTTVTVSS VL: DIVMTQSPLSLPVTPGEPASISCRSSQSLVHSNRNTYLHWYQQKPGQAPRLLIYKVSNRFSGVPDRFSGSGSGTDFTLKISRVEAEDVGVYYCGQGTQWPYTFGQGTKLEIK
1.81

New cases:
Please report KD ratio to GLS3000 for the following binder: CE115HA000/GLS3000 H27dS (antibody, IgG1, name in Kabat numbering, V domains shown, one-arm IgG1) VH: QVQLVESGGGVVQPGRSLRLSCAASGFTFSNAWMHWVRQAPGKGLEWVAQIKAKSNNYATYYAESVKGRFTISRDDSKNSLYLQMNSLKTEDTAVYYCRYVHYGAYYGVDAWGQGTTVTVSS VL: DIVMTQSPLSLPVTPGEPASISCRSSQSLVSSNRNTYLHWYQQKPGQAPRLLIYKVSNRFSGVPDRFSGSGSGTDFTLKISRVEAEDVGVYYCGQGTQVPYTFGQGTKLEIK
3.05

Attribution: patent US20210388087A1
